All values here come from patent US20240391954A1.

- target under test: human MC4R receptor (human, UniProt P32245 1-332)
- Sequence (P32245 whole entry): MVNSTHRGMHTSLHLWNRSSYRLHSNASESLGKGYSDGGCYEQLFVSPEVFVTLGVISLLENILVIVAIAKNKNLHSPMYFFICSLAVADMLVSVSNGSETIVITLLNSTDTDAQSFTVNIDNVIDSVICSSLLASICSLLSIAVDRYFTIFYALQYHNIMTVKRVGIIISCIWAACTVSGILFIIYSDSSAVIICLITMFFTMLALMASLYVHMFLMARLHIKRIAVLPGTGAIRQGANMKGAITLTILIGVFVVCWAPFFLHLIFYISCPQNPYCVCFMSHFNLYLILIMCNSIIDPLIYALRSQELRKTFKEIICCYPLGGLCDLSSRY
- measurement description: cell-based or functional assay
Starred links: 1 amine or outer side, 2 acyl side, 3 side chain; linkers in the order of their positions; H or OH if unused. Positions of bridges follow the written chain, without caps; N, C: chain ends. Non-standard residues stand in square brackets, D forms with d. dTyr(4-OMe) = O-methyl-D-tyrosine (4-OMe), COc1ccc(C[C@@H](N[*:1])C(=O)[*:2])cc1; Cit = NC(=O)NCCC[C@H](N)C(=O)O; Nle = CCCC[C@H](N)C(=O)O
The entries below are paired with their reported MC4R selectivity vs MC1R.

binder	qualifier sign	MC4R selectivity vs MC1R
{CH2CO}-G[Cit][dF]RWC-NH2 (thioether N-6; SMILES N=C(N)NCCC[C@@H]1NC(=O)[C@@H](Cc2ccccc2)NC(=O)[C@H](CCCNC(N)=O)NC(=O)CNC(=O)CSC[C@@H](C(N)=O)NC(=O)[C@H](Cc2c[nH]c3ccccc23)NC1=O) [CTX-1646]	>	770
Ac-R[Nle]CR[dTyr(4-OMe)]RFC-NH2 (disulfide 3-8; SMILES CCCC[C@H](NC(=O)[C@H](CCCNC(=N)N)NC(C)=O)C(=O)N[C@H]1CSSC[C@@H](C(N)=O)NC(=O)[C@H](Cc2ccccc2)NC(=O)[C@H](CCCNC(=N)N)NC(=O)[C@@H](Cc2ccc(OC)cc2)NC(=O)[C@H](CCCNC(=N)N)NC1=O) [CTX-1624]	=	0.15
